Values from patent US6635652B1

Listed here: items and their measured inhibition in vivo at 0.01 mg/kg.
- System: amnesia of rats induced by scopolamine
- assay: Effects on scopolamine-induced amnesia (passive avoidance task, oral administration)
- Assay type: in vivo
- measurement-context: Rattus norvegicus, po; 0.01 mg/kg p.o., 60 min before retention trial; scopolamine hydrobromide 2 mg/kg i.p.; passive avoidance latency; male Strague Dawley rats; read-out: Inhibitory rate (%)
measurement-label: inhibition in vivo at 0.01 mg/kg (%)

smiles_entry=O=C1N=C2C(OCc3ccccc3)=CC=CN2C1(Cc1ccccc1)Cc1ccccc1 assayed_target="amnesia of rats induced by scopolamine" value=58.8
smiles_entry=O=C1N=C2C=CC=CN2C1(Cc1ccc(F)cc1F)Cc1ccc(F)cc1F assayed_target="amnesia of rats induced by scopolamine" value=62.7
smiles_entry=N#Cc1ccc(CC2(Cc3ccc(C#N)cc3)C(=O)N=C3C=CC=CN32)cc1 assayed_target="amnesia of rats induced by scopolamine" value=58
smiles_entry=O=C1N=C2C(NCc3ccccc3)=CC=CN2C1(Cc1ccccc1)Cc1ccccc1 assayed_target="amnesia of rats induced by scopolamine" value=56
